- test.target: Human recombinant renin (Homo sapiens, UniProt P00797)
- Sequence (P00797 67-406): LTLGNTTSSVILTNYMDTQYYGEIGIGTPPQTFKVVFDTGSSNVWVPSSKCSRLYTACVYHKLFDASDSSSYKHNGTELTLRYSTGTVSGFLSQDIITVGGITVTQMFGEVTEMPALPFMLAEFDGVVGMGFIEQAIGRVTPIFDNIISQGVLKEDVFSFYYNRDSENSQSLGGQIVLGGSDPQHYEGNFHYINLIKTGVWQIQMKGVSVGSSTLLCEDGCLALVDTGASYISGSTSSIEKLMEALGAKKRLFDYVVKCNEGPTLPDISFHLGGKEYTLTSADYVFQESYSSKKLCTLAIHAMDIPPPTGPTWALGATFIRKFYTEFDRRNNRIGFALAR
- measurement.notes: Inhibition of human recombinant renin (QFRET, buffer)
- experimental.conditions: buffer: 50 mM MOPS pH 7.4, 100 mM NaCl, 0.002% Tween 20; 37° C., 3 hours
pIC50: −log10 of the molar value.
Quick rule: pIC50 of at least 7 means Yes, below that means No.

Study these solved cases before continuing.
{"compound": "COC(=O)NCCc1ccccc1-c1ccc([C@H]2CNCC[C@@H]2c2ccn(C)c(=O)c2)c(Cl)c1 (racemic) [Structure 62]", "cat": "Yes"}
{"compound": "CC(=O)NCCc1ccccc1-c1onc([C@H]2CNCC[C@]2(O)c2ccc(F)c(F)c2)c1Cl [Structure 104]", "cat": "Yes"}
{"compound": "Cc1cc(-c2ccccc2COc2ccccc2)ccc1[C@H]1CNCC[C@@H]1c1cc(F)cc(F)c1 (racemic) [Structure 35]", "cat": "Yes"}

*Q* Determine whether this compound has pIC50 no lower than 7: O[C@]1(c2ccc(F)c(F)c2)CCNC[C@@H]1c1cc(-c2ccc(F)cc2Br)no1 [Structure 67]
*A* No

*Q* Is pIC50 at least 7? Consider COCC(F)(F)COCc1ccc([C@@]2(O)CCNC[C@@H]2c2ccc(-c3ccccc3CCNC(C)=O)cc2C)nc1 [Structure 123]
*A* Yes

###

- test.target: recombinant renin in human plasma (Homo sapiens, UniProt P00797)
- measurement.notes: Inhibition of renin in human plasma (QFRET, plasma)
- experimental.conditions: human EDTA plasma with 1 nM recombinant renin added; 37° C., 1 hour
pIC50: −log10 of the molar value.
Kindly return Fulfilled if reported pIC50 is no lower than 7; return Not fulfilled if it is lower.

Illustrative cases are given below, each with its answer.
{"compound": "CCOCC(F)(F)COCc1ccc([C@@]2(O)CCNC[C@@H]2c2ccc(-c3ccccc3CCNC(C)=O)cc2C)cc1", "cat": "Fulfilled"}
{"compound": "CCOCC(F)(F)COCc1ccc([C@@]2(O)CCNC[C@@H]2c2noc(-c3ccccc3CCNC(C)=O)c2Br)cc1", "cat": "Fulfilled"}
{"compound": "COCCC[C@@H](CNC(C)=O)c1ccccc1-c1onc([C@H]2CNCC[C@]2(O)c2ccc(F)c(F)c2)c1Br", "cat": "Fulfilled"}
{"compound": "CC(=O)NCCc1ccccc1-c1ccc([C@H]2CNCC[C@@H]2c2cccnc2)c(C)c1 (racemic) [Structure 3]", "cat": "Fulfilled"}
{"compound": "COCCCc1ccccc1-c1ccc([C@H]2CNCC[C@@H]2c2ccc(N)nc2)c(Cl)c1 (racemic)", "cat": "Not fulfilled"}
{"compound": "CC(=O)NCCc1ccccc1-c1ccc([C@H]2CNCC[C@@H]2c2cc(F)cc(F)c2)c(C)c1 (racemic) [Structure 15]", "cat": "Fulfilled"}
{"compound": "Cn1c(-c2ccccc2)cnc1[C@H]1CNCC[C@]1(O)c1ccc(F)c(F)c1", "cat": "Not fulfilled"}
{"compound": "COCCCc1ccccc1-c1ccc([C@H]2CNCC[C@@H]2c2cccnc2N)c(Cl)c1 (racemic)", "cat": "Not fulfilled"}

*Q* Hi team, for CCC(=O)NCCc1ccccc1-c1ccc([C@H]2CNCC[C@@H]2c2cc(F)cc(F)c2)c(C)c1 (racemic) , is the recorded pIC50 at or above 7?
*A* Fulfilled

*Q* Evaluate CC(=O)NCCc1ccccc1-c1onc([C@H]2CNCC[C@]2(O)c2ccc(F)c(F)c2)c1C(C)O (some centres unmarked) : pIC50 at minimum 7?
*A* Fulfilled

*Q* Evaluate COC[C@H](C)COCc1ccc([C@@]2(O)CCNC[C@@H]2c2ccc(-c3ccccc3CCNC(C)=O)cc2C)cc1 (racemic) [Structure 54] : pIC50 at minimum 7?
*A* Fulfilled
